target: hERG (Homo sapiens); test: Patch clamp assay (hERG tail currents, whole-cell); conditions: 30 μM compound
Sequence (Q12809 whole entry): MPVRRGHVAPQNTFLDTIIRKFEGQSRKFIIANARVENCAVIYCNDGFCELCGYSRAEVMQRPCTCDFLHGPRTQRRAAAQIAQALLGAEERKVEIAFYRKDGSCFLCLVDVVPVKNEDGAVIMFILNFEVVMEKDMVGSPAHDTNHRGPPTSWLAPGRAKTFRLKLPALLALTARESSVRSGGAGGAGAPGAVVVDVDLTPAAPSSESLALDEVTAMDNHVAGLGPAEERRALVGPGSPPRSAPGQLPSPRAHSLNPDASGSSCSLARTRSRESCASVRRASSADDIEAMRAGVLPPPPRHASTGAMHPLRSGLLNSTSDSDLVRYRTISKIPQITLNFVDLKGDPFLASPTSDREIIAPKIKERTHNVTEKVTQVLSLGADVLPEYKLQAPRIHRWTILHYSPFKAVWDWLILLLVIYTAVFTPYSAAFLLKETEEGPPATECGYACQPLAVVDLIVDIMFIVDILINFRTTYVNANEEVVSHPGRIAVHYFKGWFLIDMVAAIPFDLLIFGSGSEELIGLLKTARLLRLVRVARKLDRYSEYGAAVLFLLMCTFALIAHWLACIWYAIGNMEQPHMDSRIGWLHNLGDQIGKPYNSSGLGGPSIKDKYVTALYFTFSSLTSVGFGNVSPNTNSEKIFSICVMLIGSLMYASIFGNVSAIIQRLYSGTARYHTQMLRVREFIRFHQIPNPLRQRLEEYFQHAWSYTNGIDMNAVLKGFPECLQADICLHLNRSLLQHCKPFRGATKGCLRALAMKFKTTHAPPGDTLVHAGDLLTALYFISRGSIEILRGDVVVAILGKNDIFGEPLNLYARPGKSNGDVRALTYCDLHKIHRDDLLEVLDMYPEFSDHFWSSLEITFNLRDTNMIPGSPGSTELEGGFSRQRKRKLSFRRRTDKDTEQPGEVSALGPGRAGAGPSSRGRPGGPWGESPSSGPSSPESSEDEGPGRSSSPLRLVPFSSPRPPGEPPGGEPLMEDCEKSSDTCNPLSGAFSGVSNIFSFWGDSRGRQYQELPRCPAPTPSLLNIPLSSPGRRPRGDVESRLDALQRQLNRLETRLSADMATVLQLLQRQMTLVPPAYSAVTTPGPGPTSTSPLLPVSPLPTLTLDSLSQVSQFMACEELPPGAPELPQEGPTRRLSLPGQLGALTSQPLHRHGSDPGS
Metric Name: hERG % Remaining

# Compound, Metric Name, Result
data = [
    ("CC(C)N(C(=O)c1cc(F)ccc1Oc1cncnc1N1CC2(CCN(C[C@@H]3CC[C@@H](NS(=O)(=O)N4CCC4)CO3)CC2)C1)[C@H]1CCOC1 [Example 134]", "hERG % Remaining", "+++ (≥66%)"),
    ("CCN(C(=O)c1cc(F)ccc1Oc1cncnc1N1CC2(CCN(C[C@@H]3CC[C@@H](NS(=O)(=O)N4CCC[C@@H]4C)CO3)CC2)C1)C(C)C [Example 201]", "hERG % Remaining", "+ (<33%)"),
    ("CC(C)N(C(=O)c1cc(F)ccc1Oc1cncnc1N1CC2(CCN(C[C@@H]3CC[C@@H](NS(=O)(=O)N4CCC4)CO3)CC2)C1)C(C)C [Example 88]", "hERG % Remaining", "+++ (≥66%)"),
    ("CC(C)N(C(=O)c1cc(F)ccc1Oc1cncnc1N1CC2(CCN(C[C@@H]3CC[C@@H](NS(=O)(=O)c4cnn(C(F)F)c4)CO3)CC2)C1)C(C)C [Example 85]", "hERG % Remaining", "+ (<33%)"),
]

Continue with the next compound.
Measured hERG % Remaining of CC(C)N(CC(F)F)C(=O)c1cc(F)ccc1Oc1nncnc1N1CC2(CCN(C[C@@H]3CC[C@@H](NS(=O)(=O)N4CCC4)CO3)CC2)C1 [Example 189] : +++ (≥66%)
